- Experimental system: HiBit-WIZ fusion protein (Homo sapiens, UniProt O95785+Q96SW2)
- Sequence (O95785 whole entry, the tested form may be a part): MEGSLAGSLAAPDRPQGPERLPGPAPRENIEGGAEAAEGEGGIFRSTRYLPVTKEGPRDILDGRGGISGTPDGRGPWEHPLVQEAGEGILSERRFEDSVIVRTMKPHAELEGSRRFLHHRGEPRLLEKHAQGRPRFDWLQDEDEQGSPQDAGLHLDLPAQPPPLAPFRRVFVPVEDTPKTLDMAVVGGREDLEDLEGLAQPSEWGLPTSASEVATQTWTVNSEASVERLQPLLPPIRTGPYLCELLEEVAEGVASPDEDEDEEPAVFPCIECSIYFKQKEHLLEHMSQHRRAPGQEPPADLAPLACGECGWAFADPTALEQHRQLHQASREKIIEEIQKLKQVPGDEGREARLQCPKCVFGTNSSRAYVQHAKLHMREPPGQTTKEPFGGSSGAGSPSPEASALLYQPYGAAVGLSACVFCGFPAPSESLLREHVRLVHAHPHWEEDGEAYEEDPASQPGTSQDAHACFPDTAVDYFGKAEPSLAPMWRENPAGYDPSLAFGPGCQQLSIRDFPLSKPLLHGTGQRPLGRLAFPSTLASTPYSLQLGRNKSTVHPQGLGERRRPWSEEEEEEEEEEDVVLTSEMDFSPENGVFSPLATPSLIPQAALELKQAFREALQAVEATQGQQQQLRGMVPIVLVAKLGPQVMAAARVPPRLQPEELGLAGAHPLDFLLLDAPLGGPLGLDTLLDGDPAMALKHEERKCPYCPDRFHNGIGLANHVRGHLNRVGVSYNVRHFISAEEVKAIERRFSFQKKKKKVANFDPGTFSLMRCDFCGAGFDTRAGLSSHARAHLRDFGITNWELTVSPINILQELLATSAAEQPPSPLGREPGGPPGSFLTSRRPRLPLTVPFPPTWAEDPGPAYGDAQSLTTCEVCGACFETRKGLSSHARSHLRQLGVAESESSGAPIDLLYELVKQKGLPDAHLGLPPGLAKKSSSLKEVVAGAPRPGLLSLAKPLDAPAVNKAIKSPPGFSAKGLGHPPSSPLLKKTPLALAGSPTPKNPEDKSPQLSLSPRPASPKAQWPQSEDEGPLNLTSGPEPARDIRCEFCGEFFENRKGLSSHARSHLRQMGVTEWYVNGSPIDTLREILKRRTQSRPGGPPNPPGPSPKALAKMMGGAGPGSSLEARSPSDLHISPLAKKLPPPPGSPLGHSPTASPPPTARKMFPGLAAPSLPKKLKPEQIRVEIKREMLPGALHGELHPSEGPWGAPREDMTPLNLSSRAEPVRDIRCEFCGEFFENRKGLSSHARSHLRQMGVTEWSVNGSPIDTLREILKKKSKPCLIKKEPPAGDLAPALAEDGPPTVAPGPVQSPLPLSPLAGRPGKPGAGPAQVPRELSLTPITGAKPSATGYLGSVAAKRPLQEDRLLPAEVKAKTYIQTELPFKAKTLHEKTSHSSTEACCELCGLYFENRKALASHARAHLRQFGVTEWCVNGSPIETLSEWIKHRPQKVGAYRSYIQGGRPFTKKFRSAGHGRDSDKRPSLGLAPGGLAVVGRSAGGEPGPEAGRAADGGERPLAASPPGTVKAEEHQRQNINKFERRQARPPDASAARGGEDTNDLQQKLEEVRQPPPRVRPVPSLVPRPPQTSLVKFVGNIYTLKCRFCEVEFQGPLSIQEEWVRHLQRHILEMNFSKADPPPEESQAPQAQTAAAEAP
- Sequence (Q96SW2 whole entry, the tested form may be a part): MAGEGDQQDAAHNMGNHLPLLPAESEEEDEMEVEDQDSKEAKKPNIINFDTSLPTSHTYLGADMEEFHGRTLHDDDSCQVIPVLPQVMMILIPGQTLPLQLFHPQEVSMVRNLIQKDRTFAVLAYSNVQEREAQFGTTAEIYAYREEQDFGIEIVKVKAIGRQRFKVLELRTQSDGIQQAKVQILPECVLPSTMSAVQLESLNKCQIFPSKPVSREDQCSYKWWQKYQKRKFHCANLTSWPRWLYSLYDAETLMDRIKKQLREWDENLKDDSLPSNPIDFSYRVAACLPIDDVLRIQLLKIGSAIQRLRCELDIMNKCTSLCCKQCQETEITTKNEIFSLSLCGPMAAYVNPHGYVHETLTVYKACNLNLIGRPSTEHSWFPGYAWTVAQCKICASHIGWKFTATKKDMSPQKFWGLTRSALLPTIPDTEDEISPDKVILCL
- Sequence (Q16531 whole entry partner, the tested form may be a part): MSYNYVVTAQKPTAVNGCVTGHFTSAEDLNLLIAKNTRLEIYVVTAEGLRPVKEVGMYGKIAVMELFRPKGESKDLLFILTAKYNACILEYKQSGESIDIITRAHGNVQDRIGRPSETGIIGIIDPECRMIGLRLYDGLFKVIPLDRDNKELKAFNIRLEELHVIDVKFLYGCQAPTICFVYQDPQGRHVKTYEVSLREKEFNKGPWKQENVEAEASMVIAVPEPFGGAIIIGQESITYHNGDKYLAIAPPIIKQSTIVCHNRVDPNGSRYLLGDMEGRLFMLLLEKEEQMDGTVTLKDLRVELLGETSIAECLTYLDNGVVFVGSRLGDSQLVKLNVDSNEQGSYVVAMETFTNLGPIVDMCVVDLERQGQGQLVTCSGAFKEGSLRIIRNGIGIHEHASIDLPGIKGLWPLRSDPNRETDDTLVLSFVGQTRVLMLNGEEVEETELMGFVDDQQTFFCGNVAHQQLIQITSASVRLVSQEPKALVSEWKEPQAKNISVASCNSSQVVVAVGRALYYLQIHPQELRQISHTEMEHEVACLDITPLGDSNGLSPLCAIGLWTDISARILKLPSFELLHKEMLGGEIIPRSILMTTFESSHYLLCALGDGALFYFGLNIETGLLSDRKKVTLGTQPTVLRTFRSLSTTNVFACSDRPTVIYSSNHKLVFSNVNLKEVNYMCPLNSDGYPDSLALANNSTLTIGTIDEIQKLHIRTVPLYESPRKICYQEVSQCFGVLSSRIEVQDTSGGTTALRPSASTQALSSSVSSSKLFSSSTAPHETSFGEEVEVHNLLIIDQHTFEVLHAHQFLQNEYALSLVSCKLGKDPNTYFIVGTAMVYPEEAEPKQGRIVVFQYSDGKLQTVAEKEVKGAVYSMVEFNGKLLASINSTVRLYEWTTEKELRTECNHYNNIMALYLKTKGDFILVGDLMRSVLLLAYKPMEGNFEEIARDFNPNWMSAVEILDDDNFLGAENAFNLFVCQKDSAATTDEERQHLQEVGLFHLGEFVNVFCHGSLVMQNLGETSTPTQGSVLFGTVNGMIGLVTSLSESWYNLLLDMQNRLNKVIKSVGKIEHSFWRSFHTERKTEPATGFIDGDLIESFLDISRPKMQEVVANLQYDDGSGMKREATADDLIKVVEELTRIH
- Measurement protocol: Quantification of WIZ protein levels in HiBit tag fusion protein assay (WIZ HiBit assay in 293T cells)
- Assay type: cell-based
- Measurement context: WIZ HiBit assay in 293T cells; 10-point, 5-fold dose response, highest concentration 25 μM, about 18 hours; read-out: WIZ AC50
Recorded endpoint: DC50

Lab book: DC50 of COc1cc(C#N)ccc1CN1CCCC[C@H]1COc1ccc2c(c1)CN(C1CCC(=O)NC1=O)C2=O (stereo partly shown) [Compound I-50r] noted as > 25 µM

Lab book: DC50 of O=C1CCC(N2Cc3cc(OC[C@H]4CCCCN4Cc4ccccc4OCCN4CCOCC4)ccc3C2=O)C(=O)N1 (stereo partly shown) [Compound I-50ed] noted as 0.1 µM

Lab book: DC50 of Cc1n[nH]c(CC(=O)N2CCCC[C@H]2COc2ccc3c(c2)CN(C2CCC(=O)NC2=O)C3=O)n1 (stereo partly shown) [Compound I-72cg] noted as > 25 µM

Lab book: DC50 of CCOC(=O)c1cccc2[nH]nc(CN3CCCC[C@@H]3COc3ccc4c(c3)CN(C3CCC(=O)NC3=O)C4=O)c12 (stereo partly shown) [Compound I-50er] noted as 0.92 µM

Lab book: DC50 of COc1cc(C#N)ccc1CN1CCCC[C@@H]1COc1ccc2c(c1)CN(C1CCC(=O)NC1=O)C2=O (stereo partly shown) [Compound I-50cm] noted as 1.77 µM

Lab book: DC50 of O=C1CCC(N2Cc3cc(OC[C@@H]4CCCCN4Cc4cccc(Cn5cccn5)c4)ccc3C2=O)C(=O)N1 (stereo partly shown) [Compound I-50bz] noted as 0.172 µM

Lab book: DC50 of O=C1CCC(N2Cc3cc(OC[C@@H]4CCCCN4C(=O)CN4CCCCC4)ccc3C2=O)C(=O)N1 (stereo partly shown) [Compound I-72jq] noted as > 25 µM

Lab book: DC50 of CCC(Oc1ccc2c(c1)CN(C1CCC(=O)NC1=O)C2=O)[C@@H]1CCCN1 (single isomer, unassigned) [Compound I-45] noted as > 25 µM

Lab book: DC50 of Cc1nc(C(F)(F)F)ccc1C(=O)N1CCCC[C@H]1COc1ccc2c(c1)CN(C1CCC(=O)NC1=O)C2=O (stereo partly shown) [Compound I-72n] noted as > 25 µM

Lab book: DC50 of O=C1CCC(N2Cc3cc(OC[C@@H]4CCCCN4C(=O)c4ccc(Cl)c(I)c4)ccc3C2=O)C(=O)N1 (stereo partly shown) [Compound I-72ad] noted as 17.4 µM

Lab book: DC50 of CCN1CCOC[C@H]1COc1ccc2c(c1)CN(C1CCC(=O)NC1=O)C2=O (stereo partly shown) noted as > 25 µM

Lab book: DC50 of COc1ccc(C(=O)N2CCCC[C@H]2COc2ccc3c(c2)CN(C2CCC(=O)NC2=O)C3=O)cc1OCc1ccccc1 (stereo partly shown) [Compound I-72d] noted as 1.9 µM

Lab book: DC50 of COc1ccc(-c2cc(C(=O)N3CCCC[C@H]3COc3ccc4c(c3)CN(C3CCC(=O)NC3=O)C4=O)[nH]n2)cc1 (stereo partly shown) [Compound I-72ai] noted as > 25 µM

Lab book: DC50 of O=C1CCC(N2Cc3cc(OC[C@@H]4CCCCN4C(=O)C=C4CCCCC4)ccc3C2=O)C(=O)N1 (stereo partly shown) [Compound I-72dm] noted as > 25 µM

Lab book: DC50 of CCCc1cc(C(=O)N2CCCC[C@H]2COc2ccc3c(c2)CN(C2CCC(=O)NC2=O)C3=O)no1 (stereo partly shown) [Compound I-72au] noted as > 25 µM

Lab book: DC50 of Cc1cc(O)cc(C(=O)N2CCCC[C@H]2COc2ccc3c(c2)CN(C2CCC(=O)NC2=O)C3=O)c1 (stereo partly shown) [Compound I-72hi] noted as > 25 µM

###

For each entry below, report its Dmax value.
- Experimental system: HiBit-WIZ fusion protein (Homo sapiens, UniProt O95785+Q96SW2)
- Measurement protocol: Quantification of WIZ protein levels in HiBit tag fusion protein assay (WIZ HiBit assay in 293T cells)
- Type: cell-based
- Parameters: dose or concentration left out as unconfirmed
- Measurement context: HEK-293T, 100 minus Amax; 293T cells; read-out: % degradation of WIZ (100-Amax)
Report the figure in % without appending any unit label.

Lab book: Dmax of COc1ccc(CN2CCCC[C@H]2COc2ccc3c(c2)CN(C2CCC(=O)NC2=O)C3=O)cc1F (stereo partly drawn) [Compound I-50a] noted as 52.2

Lab book: Dmax of C[C@H](CC(=O)N1CCCC[C@H]1COc1ccc2c(c1)CN(C1CCC(=O)NC1=O)C2=O)c1ccccc1 (stereo partly drawn) [Compound I-72gu] noted as 0.2

Lab book: Dmax of O=C1CCC(N2Cc3cc(OC[C@@H]4CCCCN4C(=O)c4cnnn4-c4ccccc4)ccc3C2=O)C(=O)N1 (stereo partly drawn) [Compound I-72c] noted as 20.6

###

- Experimental system: HiBit-WIZ fusion protein (Homo sapiens, UniProt O95785+Q96SW2)
- Measurement protocol: Quantification of WIZ protein levels in HiBit tag fusion protein assay (WIZ HiBit assay in 293T cells)
- Format: cell-based
- Design: dose or concentration left out as unconfirmed
- Measurement context: HEK-293T, 100 minus Amax; 293T cells; read-out: % degradation of WIZ (100-Amax)
Recorded endpoint: Dmax (%)
Report the figure in % without appending any unit label.

Lab book: Dmax of O=C1CCC(N2Cc3cc(OC[C@H]4CCCCN4Cc4ccc(F)cn4)ccc3C2=O)C(=O)N1 (stereo partly drawn) [Compound I-115] noted as 89.5

Lab book: Dmax of CNc1ncccc1CN1CCCC[C@@H]1COc1ccc2c(c1)CN(C1CCC(=O)NC1=O)C2=O (stereo partly drawn) [Compound I-50cj] noted as 71.8

Lab book: Dmax of COc1cc2[nH]nc(CN3CCCC[C@@H]3COc3ccc4c(c3)CN(C3CCC(=O)NC3=O)C4=O)c2cc1OCc1ccccc1 (stereo partly drawn) [Compound I-50ev] noted as 98

Lab book: Dmax of O=C1CCC(N2Cc3cc(OC[C@@H]4CCCCN4Cc4ncccc4O)ccc3C2=O)C(=O)N1 (stereo partly drawn) [Compound I-50dg] noted as 16.1

Lab book: Dmax of O=C1CCC(N2Cc3cc(OC[C@@H]4CCCCN4CC4CCN(C(=O)OCc5ccccc5)CC4)ccc3C2=O)C(=O)N1 (stereo partly drawn) [Compound I-50cr] noted as 52.9

Lab book: Dmax of Cc1nc(-c2cccc(CN3CCCC[C@H]3COc3ccc4c(c3)CN(C3CCC(=O)NC3=O)C4=O)c2)no1 (stereo partly drawn) [Compound I-50bb] noted as 56.8

Lab book: Dmax of COc1ccc(-c2cc(C(=O)N3CCCC[C@H]3COc3ccc4c(c3)CN(C3CCC(=O)NC3=O)C4=O)[nH]n2)cc1 (stereo partly drawn) [Compound I-72ai] noted as 41.6

Lab book: Dmax of O=C(O)Cn1cnc(CN2CCCC[C@@H]2COc2ccc3c(c2)CN(C2CCC(=O)NC2=O)C3=O)c1 (stereo partly drawn) [Compound I-50da] noted as 65.1

Lab book: Dmax of CCN1CCOC[C@H]1COc1ccc2c(c1)CN(C1CCC(=O)NC1=O)C2=O (stereo partly drawn) [Compound I-64] noted as 21.5

Lab book: Dmax of N#Cc1cccc(Cn2cccc(CN3CCCC[C@@H]3COc3ccc4c(c3)CN(C3CCC(=O)NC3=O)C4=O)c2=O)c1 (stereo partly drawn) [Compound I-50cp] noted as 65.2

Lab book: Dmax of O=C1CCC(N2Cc3cc(OC[C@@H]4CCCCN4C(=O)c4cccc(S(=O)(=O)O)c4)ccc3C2=O)C(=O)N1 (stereo partly drawn) [Compound I-72a] noted as 11.2

Lab book: Dmax of O=C1CCC(N2Cc3cc(OC[C@H]4CCCCN4Cc4ccc(N5CCCCC5)cc4)ccc3C2=O)C(=O)N1 (stereo partly drawn) [Compound I-161] noted as 91.5

Lab book: Dmax of O=C1CCC(N2Cc3cc(OC[C@@H]4CCCCN4C(=O)CCc4c[nH]cn4)ccc3C2=O)C(=O)N1 (stereo partly drawn) [Compound I-72gk] noted as 6.5

Lab book: Dmax of O=C1CCC(N2Cc3cc(OC[C@@H]4CCCCN4C(=O)c4ncn(-c5ccccc5)n4)ccc3C2=O)C(=O)N1 (stereo partly drawn) [Compound I-72dt] noted as 47.2

Lab book: Dmax of COc1ccc(C(=O)N2CCCC[C@H]2COc2ccc3c(c2)CN(C2CCC(=O)NC2=O)C3=O)cc1OCc1ccccc1 (stereo partly drawn) [Compound I-72d] noted as 71.6

Lab book: Dmax of CCN1CCN(c2ccc(CN3CCCC[C@@H]3COc3ccc4c(c3)CN(C3CCC(=O)NC3=O)C4=O)cn2)CC1 (stereo partly drawn) [Compound I-191] noted as 67.2

Lab book: Dmax of CC1(c2ccc(C(=O)N3CCCC[C@H]3COc3ccc4c(c3)CN(C3CCC(=O)NC3=O)C4=O)cc2)COC1 (stereo partly drawn) [Compound I-72gc] noted as 58.3

Lab book: Dmax of CCN1CCC(c2ccccc2CN2CCCC[C@@H]2COc2ccc3c(c2)CN(C2CCC(=O)NC2=O)C3=O)CC1 (stereo partly drawn) [Compound I-124] noted as 94.4

Lab book: Dmax of O=C1CCC(N2Cc3cc(OC[C@@H]4CCCCN4Cc4cccc(Cn5cccn5)c4)ccc3C2=O)C(=O)N1 (stereo partly drawn) [Compound I-50bz] noted as 85.2

Lab book: Dmax of O=C1CCC(N2Cc3cc(OC[C@H]4CCCCN4CC4CC5(COC5)C4)ccc3C2=O)C(=O)N1 (stereo partly drawn) [Compound I-104] noted as 87.1

Lab book: Dmax of Cc1nc(-c2cccc(CN3CCCC[C@@H]3COc3ccc4c(c3)CN(C3CCC(=O)NC3=O)C4=O)c2)no1 (stereo partly drawn) [Compound I-50du] noted as 78.4
